- test_target: T1, ZFP SBS#1494 (synthetic)
- T1 chain: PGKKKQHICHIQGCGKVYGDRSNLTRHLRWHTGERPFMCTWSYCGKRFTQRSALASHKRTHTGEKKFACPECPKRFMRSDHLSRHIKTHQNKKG
- measurement_protocol: EMSA
- applied_conditions: tags: MBP fusion
readout: Kd (nM)
// return numeric value only (unit: nM, not printed)

Query GGGTTTGAC (dsDNA) DNA 1: GGGTTTGAC DNA 2: GTCAAACCC yields Kd of 0.255
